A short record of Ki observed with UniProt:P08913 follows.
Sequence (P08913 whole entry, species assumed): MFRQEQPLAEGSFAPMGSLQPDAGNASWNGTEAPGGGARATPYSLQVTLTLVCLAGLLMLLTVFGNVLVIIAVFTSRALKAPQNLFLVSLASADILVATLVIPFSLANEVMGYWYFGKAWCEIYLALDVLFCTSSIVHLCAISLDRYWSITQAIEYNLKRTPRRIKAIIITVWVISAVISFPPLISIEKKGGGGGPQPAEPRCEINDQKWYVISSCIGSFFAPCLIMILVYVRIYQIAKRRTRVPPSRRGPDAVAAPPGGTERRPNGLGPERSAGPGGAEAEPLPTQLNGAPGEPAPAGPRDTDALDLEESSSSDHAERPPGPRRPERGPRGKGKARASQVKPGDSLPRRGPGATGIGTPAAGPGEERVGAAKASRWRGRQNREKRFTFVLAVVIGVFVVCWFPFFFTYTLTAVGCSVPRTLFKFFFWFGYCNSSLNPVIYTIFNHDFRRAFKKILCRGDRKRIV
QUANTITY_KIND: Ki (nM)

# COMPOUND, OBSERVED_MEASUREMENT
measured = [
    ("C[C@@H]1CCCN2CCc3c(oc4ccccc34)[C@@H]12 (relative stereo)", 96),
    ("C1=CCN2CCc3c([nH]c4ccccc34)C2C1 (stereo not drawn)", 150),
    ("CC(C)(C)[C@@H]1CCN2CCc3c([nH]c4ccccc34)[C@@H]2C1 (relative stereo)", 27),
]

====

- TESTED_TARGET: alpha2C-adrenoceptor (Homo sapiens)
- Sequence (P18825 whole entry, species assumed): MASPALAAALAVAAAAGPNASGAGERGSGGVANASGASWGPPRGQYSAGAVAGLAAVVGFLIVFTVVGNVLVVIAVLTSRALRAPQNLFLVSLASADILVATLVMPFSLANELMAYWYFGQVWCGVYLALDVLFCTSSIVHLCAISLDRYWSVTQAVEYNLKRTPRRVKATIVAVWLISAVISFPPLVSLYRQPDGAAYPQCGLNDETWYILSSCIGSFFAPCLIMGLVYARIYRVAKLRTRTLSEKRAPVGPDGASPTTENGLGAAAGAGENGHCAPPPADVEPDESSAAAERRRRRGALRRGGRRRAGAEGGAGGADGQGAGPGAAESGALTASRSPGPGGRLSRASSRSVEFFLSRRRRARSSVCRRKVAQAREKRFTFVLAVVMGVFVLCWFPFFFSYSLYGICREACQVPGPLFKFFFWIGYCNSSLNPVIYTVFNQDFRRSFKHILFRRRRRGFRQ
- ASSAY_PROTOCOL: Radioligand binding to alpha2-adrenoceptors (alpha2C)
- CONDITION_DESCRIPTION: calculated Ki from radioligand binding assays; read-out: Binding affinity (Ki) alpha2C
Let's look at some molecules and their measured Ki.

# MOLECULE, Ki
rows = [
    ("CC[C@]1(CO)CCCN2CCc3c([nH]c4ccccc34)[C@H]21 (relative stereo)", "110 nM"),
    ("c1ccc2c3c([nH]c2c1)C1CCCCCN1CC3 (stereo not shown)", "26 nM"),
    ("CC(C)C1(O)CCCN2CCc3c([nH]c4ccccc34)C21 (stereo not shown)", "61 nM"),
    ("CC[C@@H]1CCCN2CCc3c([nH]c4ccccc34)[C@@H]12 (relative stereo)", "75 nM"),
    ("CCC1=C(C)CC2c3[nH]c4ccccc4c3CCN2C1 (stereo not shown)", "46 nM"),
    ("CC(O)C1CCCN2CCc3c([nH]c4ccccc34)C12 (stereo not shown)", "90 nM"),
    ("OC12CCCCC1CCN1CCc3c([nH]c4ccccc34)C12 (stereo not shown)", "70 nM"),
]
